# System: 252836-082-R-J2-PDC tumor spheroids, viability;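 also: spheroids exposed to agents for seven days before readout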
# Test: Anticancer human tumor 252836-082-R-J2-PDC patient-derived head and neck squamous cell carcinoma cell line growth inhibition [PI3K]; active = viability on the fitted dose curve at most 10% of control; inactive = the rest
# Condition Parameters: second compound 0.00316 µM; first compound 10 µM; spheroids with HUVEC and MSC
# Text: Combinatorial screen of targeted agents with the PI3K inhibitors inavolisib, alpelisib, duvelisib, and copanlisib in multi-cell type tumor spheroids A high-throughput screen of multi-cell type tumor spheroids was designed to identify active combinations of targeted small molecules and PI3K pathway inhibitors. […] Compounds. […] If the clinical Cmax for an agent had not been determined, the highest concentration tested was 10 microM. […]
// allowed return values: active, inactive

// known answers, use as guide
Molecule	Label
CC1(C)CCC(CN2CCN(c3ccc(C(=O)NS(=O)(=O)c4ccc(NCC5CCOCC5)c([N+](=O)[O-])c4)c(Oc4cnc5[nH]ccc5c4)c3)CC2)=C(c2ccc(Cl)cc2)C1 + CC(Nc1ccc2c(c1)OCCn1cc(N3C(=O)OCC3C(F)F)nc1-2)C(N)=O	active
CC1(C)CCC(Nc2ncc(C(F)(F)F)c(-c3c[nH]c4c(P(C)(C)=O)c(C#N)ccc34)n2)CN1 (stereo unspecified) + CC(Nc1ccc2c(c1)OCCn1cc(N3C(=O)OCC3C(F)F)nc1-2)C(N)=O	inactive
CC1(C)CCC(CN2CCN(c3ccc(C(=O)NS(=O)(=O)c4ccc(NCC5CCOCC5)c([N+](=O)[O-])c4)c(Oc4cnc5[nH]ccc5c4)c3)CC2)=C(c2ccc(Cl)cc2)C1 + COc1c(OCCCN2CCOCC2)ccc2c3n(c(=NC(=O)c4cnc(N)nc4)nc12)CCN3	inactive
CC(Cn1ccc(-c2ccc(C#N)c(Cl)c2)n1)NC(=O)c1cc(C(C)O)[nH]n1 (stereo unspecified) + COc1c(OCCCN2CCOCC2)ccc2c3n(c(=NC(=O)c4cnc(N)nc4)nc12)CCN3	inactive
Cn1nccc1Nc1nccc(-c2ccn(C(CO)c3ccc(Cl)c(F)c3)c(=O)c2)n1 (stereo unspecified) + CC(Nc1ccc2c(c1)OCCn1cc(N3C(=O)OCC3C(F)F)nc1-2)C(N)=O	inactive

How was CC1(C)CCC(Nc2ncc(C(F)(F)F)c(-c3c[nH]c4c(P(C)(C)=O)c(C#N)ccc34)n2)CN1 (stereo unspecified) + COc1c(OCCCN2CCOCC2)ccc2c3n(c(=NC(=O)c4cnc(N)nc4)nc12)CCN3 classified in this test?
inactive

How was C[C@@H](NC(=O)c1ncnc(N)c1Cl)c1ncc(C(=O)Nc2cc(C(F)(F)F)c(Cl)cn2)s1 + CC(Nc1ccc2c(c1)OCCn1cc(N3C(=O)OCC3C(F)F)nc1-2)C(N)=O classified in this test?
inactive

How was CC(Cn1ccc(-c2ccc(C#N)c(Cl)c2)n1)NC(=O)c1cc(C(C)O)[nH]n1 (stereo unspecified) + CC(Nc1ccc2c(c1)OCCn1cc(N3C(=O)OCC3C(F)F)nc1-2)C(N)=O classified in this test?
inactive

How was Cn1ncc(Cl)c1-c1cc(C(=O)NC(CN)Cc2cccc(F)c2)sc1Cl (stereo unspecified) + COc1c(OCCCN2CCOCC2)ccc2c3n(c(=NC(=O)c4cnc(N)nc4)nc12)CCN3 classified in this test?
inactive

How was CNC(=O)c1ccc(N2C(=S)N(c3ccc(C#N)c(C(F)(F)F)c3)C(=O)C2(C)C)cc1F + CC(Nc1ccc2c(c1)OCCn1cc(N3C(=O)OCC3C(F)F)nc1-2)C(N)=O classified in this test?
inactive

How was C#Cc1c(F)ccc2cc(O)cc(-c3ncc4c(N5CC6CCC(C5)N6)nc(OCC56CCCN5CC(F)C6)nc4c3F)c12 (stereo unspecified) + CC(Nc1ccc2c(c1)OCCn1cc(N3C(=O)OCC3C(F)F)nc1-2)C(N)=O classified in this test?
inactive
